All figures here come from the supplement of paper PMC9170038.

- Test system: MS2 coat protein
- assay_comment: apparent KD of MS2 coat protein; designed switch direction (-1 OFF switch, 1 ON switch): -1; higher = weaker reporter binding
- condition_parameters: Eterna round: R95; input ligand: none
Let's look at some sequences and their measured apparent KD of MS2 coat protein.

GGUCUGCGAGGAUAUACAUGAGGAUCACCCAUGUGAGUGAAACUAGUGAGGUCGAUUGGUAGAAGGCGCGGACG [Mat - Exclusion 3 - Mod of JL D82] (puzzle: Exclusion 3) ... 17.5 nM
GAGUAGCUAGGAUAUCGAAAACAUCACAUGAGGAUCACCCAUGUGCCGGGUGCUCAGAUGCGAGAAGGAGCAAAGA [Reatququ] (puzzle: Exclusion 5) ... 175 nM

**Query** Report apparent KD of MS2 coat protein for AAAUCCGCUGAGGAUAUUAUCAGUGAGAGCUGAUGAGAAGGCGGUACAUGAGGAUCACCCAUGUCUAUGGGCAA [Ex-6 Malc#25] (puzzle: Exclusion 6) please.
**Result** 295 nM
